# STUDY_TARGET: PKC8
# METHOD: Kinase assay (RBC)
# RUN_CONDITIONS: 10 μM ATP
pIC50: −log10 of the molar value.
VALUE_KIND: pIC50

For the molecule "Cc1ccc(C(=O)Nc2ccc(CN3CCN(C)CC3)c(C(F)(F)F)c2)cc1C#Cc1cnc2cccnn12" , what pIC50 is on record?
< 6.00

---

# Test system: Phospho-Erk1/2 in RL95 cells
# METHOD: Western immunoblotting
# RUN_CONDITIONS: read-out: Phospho-Erk1/2 IC50 (nM)
VALUE_KIND: IC50

Which IC50 reading was recorded for the compound Cc1ccc(C(=O)Nc2ccc(CN3CCN(C)CC3)c(C(F)(F)F)c2)cc1C#Cc1cnc2cccnn12 [Compound 1] ?
> 1000 nM
